Each record here notes measured inhibition at 0.4 µM.
- System: Buffalo green monkey kidney (BGM 70) cells
- run.description: [3H]-thymidine uptake cytotoxicity
- Format: cell-based
- applied.conditions: Chlorocebus sabaeus, 48 h, 0.4 μmol/L; read-out: % Inhibition of [3H]-Thymidine Incorporated
Reply with just the number (in %).

Task: Give the measured inhibition at 0.4 µM of CC1(c2ccc(Cl)cc2)OC(=O)C(O)=C1O (racemic) [Compound 1] .
Output: 0

Task: Give the measured inhibition at 0.4 µM of O=c1oc2ccc(O)cc2c(O)c1O [Compound 7] .
Output: 13.9

Task: Give the measured inhibition at 0.4 µM of O=c1oc2ccc(Cl)cc2c(O)c1O [Compound 6] .
Output: 16.7

Task: Give the measured inhibition at 0.4 µM of O=c1oc2ccccc2c(O)c1O [Compound 5, 3,4-dihydroxy-2H-1-benzopyran-2-one] .
Output: 0

----------
- run.description: Inhibition of cell growth (microscopic cell count)
- Type: cell-based, Buffalo green monkey
- applied.conditions: monkey, bgm-70 cells; 48 h, 2.5 μmol/L; read-out: % Reduction of cell growth
readout.name: inhibition at 48 h, 2.5 µM (%)
Reply with just the number (in %).

Would you please look over these solved cases?
CC1(c2ccc(Cl)cc2)OC(=O)C(O)=C1O (racemic)
90
O=C1OC2(CCCCC2)C(O)=C1O [Compound 4, 4-spiro-2-hydroxytetronic acid]
59

Task: Give the measured inhibition at 48 h, 2.5 µM of O=c1oc2ccc(Cl)cc2c(O)c1O .
Output: 58

Task: Give the measured inhibition at 48 h, 2.5 µM of O=c1oc2ccc(O)cc2c(O)c1O .
Output: 1

Task: Give the measured inhibition at 48 h, 2.5 µM of O=c1oc2cc3c(cc2c(O)c1O)OCO3 .
Output: 4.2

----------
Each record here notes measured inhibition at 0.4 µM.
- System: Buffalo green monkey kidney (BGM 70) cells
- run.description: [3H]-thymidine uptake cytotoxicity
- Assay type: cell-based
- applied.conditions: Chlorocebus sabaeus, 72 h, 0.4 μmol/L; read-out: % Inhibition of [3H]-Thymidine Incorporated

O=c1oc2ccc(O)cc2c(O)c1O
13.9%

Task: Entry CC1(c2ccc(Cl)cc2)OC(=O)C(O)=C1O (racemic) , system Buffalo green monkey kidney (BGM 70) cells: what inhibition at 0.4 µM was measured?
Output: 0%

Task: Entry O=c1oc2ccccc2c(O)c1O [Compound 5, 3,4-dihydroxy-2H-1-benzopyran-2-one] , system Buffalo green monkey kidney (BGM 70) cells: what inhibition at 0.4 µM was measured?
Output: 0%

Task: Entry O=c1oc2ccc(Cl)cc2c(O)c1O , system Buffalo green monkey kidney (BGM 70) cells: what inhibition at 0.4 µM was measured?
Output: 31.8%

----------
- Tested on: Buffalo green monkey kidney (BGM 70) cells
- run.description: [3H]-thymidine uptake cytotoxicity
- Type: cell-based
- applied.conditions: Chlorocebus sabaeus, 48 h, 2.5 μmol/L; read-out: % Inhibition of [3H]-Thymidine Incorporated
readout.name: inhibition at 2.5 µM
Number first, unit second: that is the form wanted.

Task: Give the measured inhibition at 2.5 µM of CC1(c2ccc(Cl)cc2)OC(=O)C(O)=C1O (racemic) [Compound 1] .
Output: 74.3%

Task: Give the measured inhibition at 2.5 µM of O=c1oc2ccccc2c(O)c1O [Compound 5, 3,4-dihydroxy-2H-1-benzopyran-2-one] .
Output: 0%

Task: Give the measured inhibition at 2.5 µM of O=c1oc2ccc(Cl)cc2c(O)c1O [Compound 6] .
Output: 20%

Task: Give the measured inhibition at 2.5 µM of O=c1oc2ccc(O)cc2c(O)c1O [Compound 7] .
Output: 37.2%
